System under test: HLA-A*68:02
Assay info: IEDB peptide-MHC binding, cellular MHC/competitive/fluorescence; bounds were set here for any values at or beyond the usual limits of such assays
Assay setup: source organism: Mammarenavirus machupoense
Measurement type: IC50 (µM)
Numeric answer only, unit µM assumed.

Which IC50 reading was recorded for the sequence LLDCIMYQS ?
11.3

Which IC50 reading was recorded for the sequence GLSQFTHTV ?
15.1

Which IC50 reading was recorded for the sequence YNCKCCWFA ?
52.9

Which IC50 reading was recorded for the sequence LNVSYLCHL ?
20.3

Which IC50 reading was recorded for the sequence LNKSDSSWAV ?
8.7

Which IC50 reading was recorded for the sequence YNFSLSAAV ?
29.7

* * *

System under test: HLA-A*02:01
Assay info: IEDB peptide-MHC binding, purified MHC/competitive/radioactivity; bounds were set here for any values at or beyond the usual limits of such assays
Assay setup: source organism: Hepacivirus hominis
pIC50: −log10 of the molar value.
Label yes (1) when pIC50 is at or above 7; otherwise label no (0).

Past entries and their recorded results:
> print(dat)
   primary.sequence    label
1         FMLCLLLLS   no (0)
2        YTLLGCWSFV   no (0)
3        ALYGVWPLLL  yes (1)
4        LLMCAVHPEL  yes (1)
5        ALLSCISVPV  yes (1)

# ---- query sequence ----
Has LLLLSVGVGI a recorded pIC50 greater than or equal to 7?
no (0)

* * *

Let's look at some sequences and their measured pIC50.
System under test: HLA-A*02:02
Assay info: IEDB peptide-MHC binding, purified MHC/competitive/radioactivity; bounds were set here for any values at or beyond the usual limits of such assays
Assay setup: source organism: Vaccinia virus WR
The value called pIC50 is obtained by taking minus log10 of the concentration in mol/L.

Known results for sequences:
> print(dat)
    primary.sequence  recorded.result
 1        IIGHIGHHYI             6.40
 2        ITDDSDDYEL             6.16
 3         ILSCIFAFI             9.10
 4        DIISSKQYPA             6.26
 5        DMLKLFTHDI             6.71
 6        LLKCVSDSWL             7.12
 7         FIPIIYSKA             9.25
 8         LMTLDDLAI             7.28
 9        FTFGDTALYV             7.62
10        YLGHSAGFTA             7.80

Which pIC50 reading was recorded for the sequence LMIFISSFL ?
9.19

* * *

System under test: HLA-A*68:02
Assay info: IEDB peptide-MHC binding, purified MHC/competitive/radioactivity; bounds were set here for any values at or beyond the usual limits of such assays
Assay setup: source organism: Vaccinia virus WR
Let's look at some sequences and their measured IC50.
Please format your answer as a value with the unit trailing.

Known results for sequences:
> print(dat)
   primary.sequence  recorded.result
1         NACDKHNKT           925 nM
2        TTLLNETAKV           237 nM

Which IC50 reading was recorded for the sequence IIPFIAYFVL ?
76 nM

Which IC50 reading was recorded for the sequence IQYRQQLEL ?
3570 nM

Which IC50 reading was recorded for the sequence YVIPDELIDV ?
350 nM

Which IC50 reading was recorded for the sequence FLPQIGGEA ?
149 nM

* * *

System under test: HLA-A*02:06
Assay info: IEDB peptide-MHC binding, purified MHC/competitive/radioactivity; bounds were set here for any values at or beyond the usual limits of such assays
Assay setup: source organism: Vaccinia virus WR
# Condition met = IC50 below 2000 nM (exclusive); Condition not met = IC50 at/above 2000 nM

Past entries and their recorded results:
> print(dat)
   primary.sequence              label
1        DIISSKQYPA  Condition not met
2         FVDTMSIYI      Condition met
3         RQQLEDIFM      Condition met

Given the entry YLPEVISTIA , would its reported IC50 be below 2000 nM?
Condition met

Given the entry KTRLFRSPQV , would its reported IC50 be below 2000 nM?
Condition met

Given the entry YLSDSDNIKI , would its reported IC50 be below 2000 nM?
Condition met

* * *

System under test: HLA-A*29:02
Assay info: IEDB peptide-MHC binding, cellular MHC/competitive/fluorescence; bounds were set here for any values at or beyond the usual limits of such assays
Assay setup: source organism: Vaccinia virus WR
Let's look at some sequences and their measured IC50.

Which IC50 reading was recorded for the sequence NQGNILMDSI ?
7.49 µM

Which IC50 reading was recorded for the sequence VQSVLRDISI ?
≥ 70 µM

Which IC50 reading was recorded for the sequence EQRRSTIFDI ?
≥ 70 µM

Which IC50 reading was recorded for the sequence FQESFYEDI ?
58.2 µM

* * *

System under test: HLA-A*02:01
Assay info: IEDB peptide-MHC binding, cellular MHC/competitive/fluorescence; bounds were set here for any values at or beyond the usual limits of such assays
Assay setup: source organism: Vaccinia virus WR
Let's look at some sequences and their measured pIC50.
The value called pIC50 is obtained by taking minus log10 of the concentration in mol/L.

> print(dat)
    primary.sequence  measurement.type  recorded.result
 1        PTINKSIYII             pIC50             5.21
 2        AIDRQVSVKL             pIC50             4.85
 3         WTVYLIKLI             pIC50             5.12
 4        LITLILSNKL             pIC50             5.12
 5        KILTREMGFL             pIC50             5.26
 6        LVFIKPPLIT             pIC50             4.41
 7         GIDTSNNIA             pIC50             4.76
 8        DALAKNASEL             pIC50             4.21
 9         IATYIDALA             pIC50             4.91
10         NIGKIIMSL             pIC50             5.15

Could you share what pIC50 was measured for VISLLSMITM , tested on HLA-A*02:01?
4.96

Could you share what pIC50 was measured for DVEKRILNT , tested on HLA-A*02:01?
5.03

Could you share what pIC50 was measured for GTKGKLYIAL , tested on HLA-A*02:01?
4.78

Could you share what pIC50 was measured for CIRISMVISL , tested on HLA-A*02:01?
5.21

Could you share what pIC50 was measured for KQDIVGLDL , tested on HLA-A*02:01?
4.85

Could you share what pIC50 was measured for VAKCCSKTNT , tested on HLA-A*02:01?
4.68

Could you share what pIC50 was measured for QQPIKKDCMV , tested on HLA-A*02:01?
4.73

* * *

System under test: HLA-A*68:02
Assay info: IEDB peptide-MHC binding, purified MHC/competitive/radioactivity; bounds were set here for any values at or beyond the usual limits of such assays
Assay setup: source organism: Mammarenavirus lassaense
Measurement type: pIC50
The value called pIC50 is obtained by taking minus log10 of the concentration in mol/L.

> print(dat)
   primary.sequence  system.under.test  recorded.result
1        SIINHKFCNL        HLA-A*68:02             6.04
2        MSIQLINKAV        HLA-A*68:02             7.96
3        YCSNIKLQVV        HLA-A*68:02             5.93

Now for a further sequence.
Which pIC50 reading was recorded for the sequence FSTSFYLISI ?
8.74

* * *

Let's look at some sequences and their measured IC50.
System under test: HLA-A*02:03
Assay info: IEDB peptide-MHC binding, purified MHC/competitive/radioactivity; bounds were set here for any values at or beyond the usual limits of such assays
Assay setup: source organism: Vaccinia virus WR
Numeric answer only, unit nM assumed.

> print(dat)
    primary.sequence  recorded.result
 1         MAEFEDQLV              641
 2        SIPISELSRL               61
 3         RMPTDMLKL              106
 4         DTGKKELAL              156
 5        DTCLLAISAV               93
 6        GLSSGFYFEI              782
 7        YVIPDELIDV               14
 8        SINITPDDGL             1230
 9        DLFMSHVKSV               42
10        IVCSKTVKNV              503

Which IC50 reading was recorded for the sequence NVDIIDLLL ?
4090
